The reader will find reported ECL Signal [10 nM Fab] values listed item by item below.
Molecular target: T1, Recombinant Human DLL4 (R&D Systems Cat#1506-D4/CF) (human, UniProt Q9NR61 27-524)
T1 construct: Bought recombinant human DLL4; also called delta-like protein 4; rHuman DLL4
Assay: ECL (MSD) binding assay, immobilised DLL4, 10 nM Fab;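 also: fab binding read as electrochemiluminescence via a TAG-labelled detection antibody, 1 h incubations at 20 °C, antigen signal compared with each well's blank, ratio of at least 4 scored as binder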

>  <binder>
Fab VH5-51_IGHD5-18*01>3_IGHJ4*01 G100K/G104T (H:KT) & V3-4_IGLJ1*01 S96R (Fab, V domains shown, Fab format: CH1 with His6 and Flag tags, and lambda CL, from the vectors; also called G100K/G104T & S96R) VH: EVQLVQSGAEVKKPGESLKISCKGSGYSFTSYWIGWVRQMPGKGLEWMGIIYPGDSDTRYSPSFQGQVTISADKSISTAYLQWSSLKASDTAMYYCARRKYSYTYDYFDYWGQGTLVTVSS VL: QTVVTQEPSFSVSPGGTVTLTCGLSSGSVSTSYYPSWYQQTPGQAPRTLIYSTNTRSSGVPDRFSGSILGNKAALTITGAQADDESDYYCVLYMGRGISYVFGTGTKVTVL

>  <observed>
54300

$$$$

Value of ECL Signal [10 nM Fab] reported for the binder Fab VH5-51_IGHD5-18*01>3_IGHJ4*01 G100K/G104T (H:KT) & V3-4_IGLJ1*01 S96A (Fab, V domains shown, Fab format: CH1 with His6 and Flag tags, and lambda CL, from the vectors; also called G100K/G104T & S96A) VH: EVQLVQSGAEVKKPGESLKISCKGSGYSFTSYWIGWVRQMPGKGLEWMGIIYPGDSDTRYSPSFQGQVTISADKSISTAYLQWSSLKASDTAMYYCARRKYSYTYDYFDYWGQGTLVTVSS VL: QTVVTQEPSFSVSPGGTVTLTCGLSSGSVSTSYYPSWYQQTPGQAPRTLIYSTNTRSSGVPDRFSGSILGNKAALTITGAQADDESDYYCVLYMGAGISYVFGTGTKVTVL is 1130

Value of ECL Signal [10 nM Fab] reported for the binder Fab VH5-51_IGHD5-18*01>3_IGHJ4*01 G100K/G104T (H:KT) & V3-4_IGLJ1*01 (Fab, V domains shown, Fab format: CH1 with His6 and Flag tags, and lambda CL, from the vectors; also called KT double mutant; H:KT & L:wt) VH: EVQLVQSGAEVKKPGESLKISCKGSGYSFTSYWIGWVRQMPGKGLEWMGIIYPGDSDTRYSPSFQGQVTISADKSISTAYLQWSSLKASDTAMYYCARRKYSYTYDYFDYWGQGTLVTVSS VL: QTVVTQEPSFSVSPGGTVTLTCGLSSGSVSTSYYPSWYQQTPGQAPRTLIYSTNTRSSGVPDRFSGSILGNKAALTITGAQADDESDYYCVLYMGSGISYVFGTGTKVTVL is 36600
